Assay: PBMC cell counts (total, live, viability; trypan blue, Countess) with and without LPS and test articles (Example 9)
Type: cell-based, human
Conditions: human, PBMCs, PBMC + compound 10 uM, no LPS; 24 hr
Where a SMILES comes first, the peptide text is derived from it. [ ]: non-standard residue; d: D form. Hyp = O=C(O)[C@@H]1C[C@@H](O)CN1
parameter: viability at 24 h, 10 µM (%)
Quick note: give the figure in %, leave out the unit.

Recorded viability at 24 h, 10 µM of CC(C)C[C@H](NC(=O)CNC(=O)[C@H](CC(=O)O)NC(=O)[C@H](CCC(N)=O)NC(=O)CNC(=O)[C@@H]1C[C@@H](O)CN1)C(=O)N[C@@H](C)C(=O)NCC(=O)N1CCC[C@H]1C(=O)N[C@@H](CCCCN)C(=O)O [YY-101] (H-[Hyp]GQDGLAGPK-OH; N-terminus and C-terminus assumed) , please.
86

* * *

Assay: Apparent permeability, 21 day cultured Caco-2 cell monolayer, bi-directional (Example 7)
Assay type: in vitro ADME
Details: Caco-2, 2 μM; 120 minutes; read-out: B to A % Recovery
Where a SMILES comes first, the peptide text is derived from it. [ ]: non-standard residue; d: D form. Hyp = O=C(O)[C@@H]1C[C@@H](O)CN1
parameter: recovery (%)
Quick note: give the figure in %, leave out the unit.

Recorded recovery of CC(C)C[C@H](NC(=O)[C@H](CCC(N)=O)NC(=O)CNC(=O)[C@@H]1C[C@@H](O)CN1)C(=O)NCC(=O)O [YDE-043] (H-[Hyp]GQLG-OH; N-terminus and C-terminus assumed) , please.
67.2

* * *

Assay: PBMC cell counts (total, live, viability; trypan blue, Countess) with and without LPS and test articles (Example 9)
Assay type: cell-based, human
Details: human, human PBMCs, PBMC + LPS(5 ug/ml), test article 0.01 uM; single replicates
Where a SMILES comes first, the peptide text is derived from it. [ ]: non-standard residue; d: D form. Hyp = O=C(O)[C@@H]1C[C@@H](O)CN1
parameter: viability at 24 h, 0.01 µM (%)
Quick note: give the figure in %, leave out the unit.

Recorded viability at 24 h, 0.01 µM of CC(C)C[C@H](NC(=O)CNC(=O)[C@H](CC(C)C)NC(=O)[C@H](CCC(N)=O)NC(=O)CNC(=O)[C@@H]1C[C@@H](O)CN1)C(=O)N[C@@H](C)C(=O)NCC(=O)N1CCC[C@H]1C(=O)N[C@@H](CCCCN)C(=O)O [YDE-011] (H-[Hyp]GQLGLAGPK-OH) , please.
83

* * *

Entries and their viability at 24 h, 100 µM
Assay: PBMC cell counts (total, live, viability; trypan blue, Countess) with and without LPS and test articles (Example 9)
Format: cell-based, human
Conditions: human, PBMCs, PBMC + LPS(5 ug/ml) + compound 100 uM; 24 hr
Where a SMILES comes first, the peptide text is derived from it. [ ]: non-standard residue; d: D form. Hyp = O=C(O)[C@@H]1C[C@@H](O)CN1

Some solved cases for reference:
compound	viability at 24 h, 100 µM
CC(C)C[C@H](NC(=O)CNC(=O)[C@H](CC(C)C)NC(=O)[C@H](CCC(N)=O)NC(=O)CNC(=O)[C@@H]1C[C@@H](O)CN1)C(=O)N[C@@H](C)C(=O)NCC(=O)N1CCC[C@H]1C(=O)N[C@@H](CCCCN)C(=O)O [YDE-011] (H-[Hyp]GQLGLAGPK-OH)	74.3%
CC(C)C[C@H](NC(=O)[C@H](CCC(N)=O)NC(=O)CNC(=O)[C@@H]1C[C@@H](O)CN1)C(=O)NCC(=O)O [YDE-043] (H-[Hyp]GQLG-OH; N-terminus and C-terminus assumed)	84.5%

Field: next compound
Recorded viability at 24 h, 100 µM of CC(C)C[C@H](NC(=O)CNC(=O)[C@H](CC(=O)O)NC(=O)[C@H](CCC(N)=O)NC(=O)CNC(=O)[C@@H]1C[C@@H](O)CN1)C(=O)N[C@@H](C)C(=O)NCC(=O)N1CCC[C@H]1C(=O)N[C@@H](CCCCN)C(=O)O [YY-101] (H-[Hyp]GQDGLAGPK-OH; N-terminus and C-terminus assumed) , please.
76.7%
